Each record here notes measured pIC50.
System tested: Somatostatin receptor type 3 (Homo sapiens, UniProt P32745)
Sequence (P32745 whole entry): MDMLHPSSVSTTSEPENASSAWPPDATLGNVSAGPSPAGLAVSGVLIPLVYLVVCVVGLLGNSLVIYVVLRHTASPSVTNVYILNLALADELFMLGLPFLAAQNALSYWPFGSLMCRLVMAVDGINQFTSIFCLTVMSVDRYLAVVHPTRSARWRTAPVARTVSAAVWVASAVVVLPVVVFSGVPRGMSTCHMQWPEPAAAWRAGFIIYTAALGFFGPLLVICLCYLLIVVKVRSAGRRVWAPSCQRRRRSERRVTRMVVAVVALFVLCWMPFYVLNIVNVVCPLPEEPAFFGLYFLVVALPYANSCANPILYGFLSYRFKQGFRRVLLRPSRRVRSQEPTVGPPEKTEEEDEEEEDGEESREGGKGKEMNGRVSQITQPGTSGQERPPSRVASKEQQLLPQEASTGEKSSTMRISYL
Assay details: biochemical
Description: Displacement of [125I]SS-14 from human SSTR3 expressed in CHO cells by TopCount analyzer
pIC50: −log10 of the molar value.
Result type: pIC50

CCOC(=O)c1ccnc([C@@]2(c3cnn(C)c3)N[C@@H](c3nc(-c4ccc(F)cc4)c[nH]3)Cc3c2[nH]c2ccccc32)c1
8.31
CCOC(=O)c1ccc(C2(c3cnn(C)c3)N[C@@H](c3nc(-c4ccc(F)cc4)c[nH]3)Cc3c2[nH]c2ccccc32)nc1 (single isomer, unassigned; 9B)
8.54
Cn1cc(C2(c3cc(C(=O)O)ccn3)N[C@@H](c3nc(-c4ccc(F)cc4)c[nH]3)Cc3c2[nH]c2ccccc32)cn1 (single isomer, unassigned; 3A)
8.67
Cn1cc([C@@]2(c3cncc(C(=O)O)c3)N[C@@H](c3nc(-c4ccc(F)cc4)c[nH]3)Cc3c2[nH]c2ccccc32)cn1
8.91
Cn1cc(C2(c3cccc(C(=O)O)n3)N[C@@H](c3nc(-c4ccc(F)cc4)c[nH]3)Cc3c2[nH]c2ccccc32)cn1 (single isomer, unassigned; 2A)
8.36
CCOC(=O)c1ccnc(C2(c3cnn(C)c3)N[C@@H](c3nc(-c4ccc(F)cc4)c[nH]3)Cc3c2[nH]c2ccccc32)c1 (single isomer, unassigned)
9.19
CCOC(=O)c1cccc(C2(c3cnn(C)c3)N[C@@H](c3nc(-c4ccc(F)cc4)c[nH]3)Cc3c2[nH]c2ccccc32)n1 (single isomer, unassigned; 6B)
8.82
Cn1cc([C@]2(c3cncc(C(=O)O)c3)N[C@@H](c3nc(-c4ccc(F)cc4)c[nH]3)Cc3c2[nH]c2ccccc32)cn1
7.97
CCOC(=O)c1ccc(C2(c3cnn(C)c3)N[C@@H](c3nc(-c4ccc(F)cc4)c[nH]3)Cc3c2[nH]c2ccccc32)nc1 (single isomer, unassigned; 9A)
8.76
Cn1cc(C2(c3cc(C(=O)O)ccn3)N[C@@H](c3nc(-c4ccc(F)cc4)c[nH]3)Cc3c2[nH]c2ccccc32)cn1 (single isomer, unassigned; 3B)
7.14
Cn1cc(C2(c3cccc(C(=O)O)n3)N[C@@H](c3nc(-c4ccc(F)cc4)c[nH]3)Cc3c2[nH]c2ccccc32)cn1 (single isomer, unassigned; 2B)
7.13
CCOC(=O)c1cccc(C2(c3cnn(C)c3)N[C@@H](c3nc(-c4ccc(F)cc4)c[nH]3)Cc3c2[nH]c2ccccc32)n1 (single isomer, unassigned; 6A)
9.08
CCOC(=O)c1cncc([C@]2(c3cnn(C)c3)N[C@@H](c3nc(-c4ccc(F)cc4)c[nH]3)Cc3c2[nH]c2ccccc32)c1
9.11
CCOC(=O)c1cncc([C@@]2(c3cnn(C)c3)N[C@@H](c3nc(-c4ccc(F)cc4)c[nH]3)Cc3c2[nH]c2ccccc32)c1
8.47
